Test system: biotinyl-Leu-oxazolone
protocol_text: self-aminoacylation, catalytic enhancement (BLO) (fold over background); higher = more active; k-Seq, kA / k0A0; sequences stand for … in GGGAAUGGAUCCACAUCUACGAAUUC…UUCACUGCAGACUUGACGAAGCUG
Fewer inactive variants are shown than the library holds.
property_name: self-aminoacylation
// return just the number, without any unit appended

Completed entries (count: 3):
Give self-aminoacylation for AUUAUCCUGGUCAACGAGUGA [Fam2.1 aminoacylation ribozyme variant]
8.02

Specify self-aminoacylation for CUACUUCAAACAACCUGUCUG [Fam1A.1 aminoacylation ribozyme variant] and stop.
0.589

Determine its reported self-aminoacylation: CCACACUUCCAGCAAUGGGUC [Fam1B.1 aminoacylation ribozyme variant]
0.88

***
// Input: AUUCACCUAGGUCAUCAGGCG [Fam2.2 aminoacylation ribozyme variant] . Output its self-aminoacylation only.
1.54

Kindly indicate its recorded self-aminoacylation. Item: CCACACUUCAAGAAAUCGGGC [Fam1B.1 aminoacylation ribozyme variant]
1.64

Tell us which self-aminoacylation value is on record for AUUCACCUAGGUCAAUGGGUG [Fam2.2 aminoacylation ribozyme variant]
2.23

Item CCACACUUCAAGCAAUCGCCC [Fam1B.1 aminoacylation ribozyme variant] : provide self-aminoacylation
2

Give the value of self-aminoacylation reported for the following: AAUACCCUUGUCAUCGAGUGA [Fam2.1 aminoacylation ribozyme variant]
4.72

* * *

Tested on: biotinyl-Met-oxazolone
protocol_text: self-aminoacylation, catalytic enhancement (BMO) (fold over background); higher = more active; k-Seq, kA / k0A0; sequences stand for … in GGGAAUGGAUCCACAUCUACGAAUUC…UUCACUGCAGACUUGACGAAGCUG
Fewer inactive variants are shown than the library holds.
property_name: self-aminoacylation
Respond using a number only.

Some sequences with known self-aminoacylation results, for comparison:
For the sequence CCACACUUCACGCAAUCGAUC [Fam1B.1 aminoacylation ribozyme variant] , give its measured self-aminoacylation value.
0.55

Provide only the value of recorded self-aminoacylation for CCACACCUCAAGCAAUCGGUU [Fam1B.1 aminoacylation ribozyme variant]
1.14

Return self-aminoacylation for the following sequence: AAGUAUGCUAGUAGUCGCAAG [Fam3.1 aminoacylation ribozyme variant]
1.22

Tell me measured self-aminoacylation for UUUCACCUAGGUCUUCGGGUG [Fam2.2 aminoacylation ribozyme variant] please.
4.63

Quickly give me recorded self-aminoacylation for AUUCACCUAGGUCUUCGGGUA [Fam2.2 aminoacylation ribozyme variant]
3.75

Retrieve self-aminoacylation measured for CCACACUUCAAGCCAUCGGCC [Fam1B.1 aminoacylation ribozyme variant] and print it.
3.33

Provide one value: measured self-aminoacylation of AAGUAUGCUAAUAGUCCCAAG [Fam3.1 aminoacylation ribozyme variant]
1.18

State its self-aminoacylation for this sequence: AUUACCUUGGUCAUUGAGUGA [Fam2.1 aminoacylation ribozyme variant]
8.51

Continue with the sequence presented below.
Note down self-aminoacylation recorded for AUUCACCUAGGUUGUCGGGUG [Fam2.2 aminoacylation ribozyme variant]
4.89

* * *

Entries and their self-aminoacylation
System: biotinyl-Val-oxazolone
protocol_text: self-aminoacylation, catalytic enhancement (BVO) (fold over background); higher = more active; k-Seq, kA / k0A0; sequences stand for … in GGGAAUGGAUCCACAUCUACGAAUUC…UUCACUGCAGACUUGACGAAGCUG
Variants at the floor of the assay were thinned out.
Please give only the number in your answer, with no unit.

Look over these answered cases.
Note down self-aminoacylation recorded for AAUAUCCUGGUCAUCGAGUGA [Fam2.1 aminoacylation ribozyme variant]
4.34

Specify self-aminoacylation for CCACAUUUCAAGCGAUCGGUC [Fam1B.1 aminoacylation ribozyme variant] and stop.
1.64

Check the records and state self-aminoacylation for AUUAACCUAGGUCAACGGGUG [Fam2.2 aminoacylation ribozyme variant]
1.89

---
Give recorded self-aminoacylation. CCACACUUCAAGCAUUCAGUC [Fam1B.1 aminoacylation ribozyme variant]
0.758

Fill in reported self-aminoacylation for this entry: GUGCUUCAAACAAUCGGUCUG [Fam1A.1 aminoacylation ribozyme variant]
2.39

Tell me measured self-aminoacylation for UUUCACCUAGGUCCUCGGGUG [Fam2.2 aminoacylation ribozyme variant] please.
4.22

Tell me self-aminoacylation reported for CUACCUCAAACAAUCGGUCUA [Fam1A.1 aminoacylation ribozyme variant]
0.885

Assign self-aminoacylation to the following record: AUUCACGUAGGUCAUCCGGUG [Fam2.2 aminoacylation ribozyme variant]
8.57

Complete the entry with self-aminoacylation for AAGUUGGCUAAUAGCCGCAAG [Fam3.1 aminoacylation ribozyme variant]
1.91

State its self-aminoacylation for this sequence: AUGUUUGGUAAUAGUCGCAAG [Fam3.1 aminoacylation ribozyme variant]
1.51

Complete the entry with self-aminoacylation for CUACUUCCUACAAUCGGUCUG [Fam1A.1 aminoacylation ribozyme variant]
0.801

Name the recorded self-aminoacylation of the item CCUCACUUCAAGCAGUCGGUC [Fam1B.1 aminoacylation ribozyme variant] in your answer.
0.855

Given the sequence AUUCACAUAGGUCAUCGGGUA [Fam2.2 aminoacylation ribozyme variant] , write its reported self-aminoacylation.
2.57

Provide one value: measured self-aminoacylation of AAUACCCUUGUCAUCGAGUGA [Fam2.1 aminoacylation ribozyme variant]
2.43
